# TESTED ON: [^3H]imipramine binding sites at the human α4β2 AChR (Homo sapiens, UniProt P17787+P43681)
# SETTINGS: Ki, resting state, absence of k-BTx (no ligand)
Where a name gives a salt, the structure may show the parent alone.
METRIC NAME: Ki (nM)

{"columns": ["COMPOUND", "TESTED ON", "METRIC NAME", "UNIT ABBREVIATION", "QUANTITATIVE RESULT"],
 "data": [
  ["CN(C)CCC=C1c2ccccc2CCc2ccccc21 [Amitriptyline, amitriptyline hydrochloride]", "[^3H]imipramine binding sites at the human α4β2 AChR (Homo sapiens, UniProt P17787+P43681)", "Ki", "nM", 1100],
  ["CN(C)CCCN1c2ccccc2CCc2ccccc21 [Imipramine, Imipramine hydrochloride]", "[^3H]imipramine binding sites at the human α4β2 AChR (Homo sapiens, UniProt P17787+P43681)", "Ki", "nM", 1100]
]}

* * *

# TESTED ON: [^3H]imipramine binding sites at the human α4β2 AChR (Homo sapiens, UniProt P17787+P43681)
# SETTINGS: IC50, desensitized state, presence of 1 μM (−)-cytisine
pIC50: −log10 of the molar value. Counter-ions that a name gives are not always drawn.
METRIC NAME: pIC50

{"columns": ["MOLECULE", "QUANTITATIVE RESULT"],
 "data": [
  ["CNC1(C)C2CCC(C2)C1(C)C (racemic) [(±)-Mecamylamine, (±)-mecamylamine hydrochloride]", 3.68]
]}

* * *

# TESTED ON: [^3H]imipramine binding sites at the human α4β2 AChR (Homo sapiens, UniProt P17787+P43681)
# SETTINGS: Ki, desensitized state, presence of 1 μM (−)-cytisine
Counter-ions that a name gives are not always drawn.

{"columns": ["COMPOUND", "TESTED ON", "Ki"],
 "data": [
  ["CN(C)CCCN1c2ccccc2CCc2ccccc21 [Imipramine, Imipramine hydrochloride]", "[^3H]imipramine binding sites at the human α4β2 AChR (Homo sapiens, UniProt P17787+P43681)", "970 nM"]
]}

* * *

# TESTED ON: human α4β2 AChR (Homo sapiens, UniProt P17787+P43681)
# EXPERIMENT NOTES: cell-based
pIC50: −log10 of the molar value. Counter-ions that a name gives are not always drawn.
METRIC NAME: pIC50

{"columns": ["COMPOUND", "METRIC NAME", "QUANTITATIVE RESULT"],
 "data": [
  ["CN(C)CCC=C1c2ccccc2CCc2ccccc21 [Amitriptyline, amitriptyline hydrochloride]", "pIC50", 5.66],
  ["CN(C)CCCN1c2ccccc2CCc2ccccc21 [Imipramine, Imipramine hydrochloride]", "pIC50", 5.27],
  ["CN(C)CCC=C1c2ccccc2COc2ccccc21 [Doxepin, doxepin hydrochloride]", "pIC50", 5.17],
  ["CNC1(C)C2CCC(C2)C1(C)C (racemic) [(±)-Mecamylamine, (±)-mecamylamine hydrochloride]", "pIC50", 5.52]
]}

These entries and their values trace back to paper PMC4605392.
